# target_or_test_system: UniProtKB P09917
# Sequence (whole entry): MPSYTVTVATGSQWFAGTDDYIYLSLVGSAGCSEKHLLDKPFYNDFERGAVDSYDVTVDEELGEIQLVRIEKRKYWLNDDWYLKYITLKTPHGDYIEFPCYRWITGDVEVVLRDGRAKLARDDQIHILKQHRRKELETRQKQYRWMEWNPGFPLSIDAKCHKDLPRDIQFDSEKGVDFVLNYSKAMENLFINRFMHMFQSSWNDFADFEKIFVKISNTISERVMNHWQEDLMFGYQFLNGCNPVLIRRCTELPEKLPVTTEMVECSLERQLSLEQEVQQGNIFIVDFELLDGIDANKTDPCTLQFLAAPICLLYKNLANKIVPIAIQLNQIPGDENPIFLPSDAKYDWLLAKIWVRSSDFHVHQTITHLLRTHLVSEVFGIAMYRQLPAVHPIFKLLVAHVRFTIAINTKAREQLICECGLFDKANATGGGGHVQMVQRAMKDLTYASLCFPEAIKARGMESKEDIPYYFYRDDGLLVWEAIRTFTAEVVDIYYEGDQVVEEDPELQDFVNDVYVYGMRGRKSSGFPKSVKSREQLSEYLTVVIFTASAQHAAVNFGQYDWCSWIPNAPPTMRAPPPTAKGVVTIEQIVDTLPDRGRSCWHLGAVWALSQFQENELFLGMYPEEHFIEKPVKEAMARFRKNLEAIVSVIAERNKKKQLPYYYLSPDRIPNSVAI
# assay_method_text: Inhibition of human 5-lipoxygenase at 10 uM using arachidonic acid as substrate pretreated for 10 mins followed by substrate and ATP addition and measured after 20 mins by […] probe based fluorescence assay relative to control
readout_kind: inhibition (%)
Numbers only, in %.

Look over these answered cases.
[
  {
    "compound_structure": "COc1ccc2c(=O)cc(C(=O)NCCC3CCN(Cc4ccccc4)CC3)[nH]c2c1",
    "inhibition / %": 31
  },
  {
    "compound_structure": "O=C(NCCC1CCN(Cc2ccccc2)CC1)c1cc(=O)c2cc(O)ccc2o1",
    "inhibition / %": 36
  },
  {
    "compound_structure": "COc1cccc2c(=O)cc(C(=O)NCCC3CCN(Cc4ccccc4)CC3)[nH]c12",
    "inhibition / %": 47
  }
]

List the reported inhibition of each compound below.
1. COc1cc2[nH]c(C(=O)NCCC3CCN(Cc4ccccc4)CC3)cc(=O)c2cc1OC
2. COc1ccc2c(=O)cc(C(=O)NCCC3CCN(Cc4ccccc4)CC3)oc2c1
3. O=C(NC1CCN(Cc2ccccc2)CC1)c1cc(=O)c2cc(O)ccc2o1
4. O=C(NCCC1CCN(Cc2ccccc2)CC1)c1cc(=O)c2ccccc2o1
5. COc1ccc2oc(C(=O)NCCC3CCN(Cc4ccccc4)CC3)cc(=O)c2c1

Return:
1: 31; 2: 31; 3: 48; 4: 24; 5: 33

Below is a list of compounds. For each, state its recorded inhibition.
1. COc1cc2oc(C(=O)NCCCC3CCN(Cc4ccccc4)CC3)cc(=O)c2cc1OC
2. COc1cc2oc(C(=O)NCC3CCN(Cc4ccccc4)CC3)cc(=O)c2cc1OC
3. COc1ccc2[nH]c(C(=O)NCCC3CCN(Cc4ccccc4)CC3)cc(=O)c2c1

Return:
1. 48
2. 45
3. 31
